Give measured inhibition for each item. Keep answers brief.
Target: SRSF protein kinase 3 (Homo sapiens);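 further: mean of replicate inhibition values against MSSK1 kinase, profiled within the GSK PKIS kinase inhibitor set screen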
Settings: at 0.1 µM
Numbers only, in %.

# compound, value_measured
measured = [
    ("Nc1ncnc2occ(-c3ccc(NC(=O)Nc4cccc(C(F)(F)F)c4)cc3)c12", 19),
    ("N#Cc1c(NC(=O)c2cccc3ccccc23)sc2c1CCCC2", -0.61),
    ("COc1cc2ncn(-c3cc(OCc4ccccc4C(F)(F)F)c(C(N)=O)s3)c2cc1OC", -2.16),
    ("Cc1cccc(-c2n[nH]cc2-c2ccc3ncccc3n2)n1", -1.48),
    ("COc1ccc2cc(-c3c(-c4ccncc4)nc(-c4ccc([S+](C)[O-])cc4)n3C)ccc2c1 (stereo not given)", -1.39),
    ("CCn1c(-c2nonc2N)nc2cncc(C(=O)N3CC[C@H](N)C3)c21", -3.11),
    ("CC1=C(C(=O)Nc2ccc3[nH]ncc3c2)C(c2ccc3ccccc3c2)CC(=O)N1 (stereo not given)", 0.02),
    ("O=C(Nc1n[nH]c2nc(-c3ccco3)c(Br)cc12)C1CC1", -0.09),
]

# per-item lookup of inhibition; items listed below
1. COc1cc(C=NNc2ncnc3c2cnn3-c2ccccc2)ccc1O
2. CS(=O)(=O)CCNCc1ccc(-c2ccc3ncnc(Nc4ccc(OCc5cccc(F)c5)c(C(F)(F)F)c4)c3c2)o1
3. COc1ccc(COc2ccc(Cc3cnc(N)nc3N)cc2OC)cc1
4. CS(=O)(=O)Nc1ccc(N/C=C2\C(=O)Nc3ccccc32)cc1
5. Cc1nnc(-c2ccc(C)c(-c3ccc(C(=O)Nc4cccc(C#N)c4)cc3)c2)o1
6. NC(=O)c1ccc(-c2nc(-c3ccccn3)c(-c3ccc4c(c3)OCO4)[nH]2)cc1
7. COC(=O)Nc1nc2cc(Oc3ccc(NC(=O)Nc4cccc(C(=O)O)c4)cc3)ccc2[nH]1
8. CCCN1CCC(Oc2cc(Nc3nc(Nc4cccc(F)c4C(N)=O)c4cc[nH]c4n3)c(OC)cc2Cl)CC1

Result:
1: 2.22; 2: -1.77; 3: 2.01; 4: 1.49; 5: -2.92; 6: -1.12; 7: 1.98; 8: 0.09

# per-item lookup of inhibition; items listed below
1. CC(=O)Nc1cccc(C#Cc2cncnc2Nc2ccc(OCc3cccc(F)c3)c(Cl)c2)n1
2. CC1=C(C(=O)Nc2ccc3[nH]ncc3c2)C(c2ccc(Cl)c(Cl)c2)CC(=O)N1 (stereo not given)
3. COc1ccc(-c2coc3ncnc(N)c23)cc1
4. CCn1c(-c2nonc2N)nc2c(C#CC(C)(C)O)nc(OC[C@@H](N)c3ccccc3)cc21

Result:
-0.01
-0.02
-0.31
0.05
